B1: INTS3 (parent)
chain: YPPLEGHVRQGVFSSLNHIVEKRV

# Variants of: B1
# ASSAY COMMENT: protein stability index of a GFP-peptide fusion (GPS, HEK-293T) (PSI 1-6); higher = more stable;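 further: lentivirally expressed fusions sorted by FACS into six bins by GFP to DsRed ratio, PSI derived from sequencing read proportions per bin multiplied by bin number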
# EXPERIMENTAL CONDITIONS: c terminus: a fixed tail appended
PARAMETER MEASURED: protein stability index
Form: value (number only, do not type unit).

Look up protein stability index of "YPPLEGHVRQAVFSSLNHIVEKRV" and report it.
2.31

Look up protein stability index of "YPPLERHVRQGVFSSLNHIVEKRV" and report it.
2.3

Look up protein stability index of "YPPLEGHVRQGVFGSLNHIVEKRV" and report it.
2.61

Look up protein stability index of "YPPLEGHVRQGVFSVLNHIVEKRV" and report it.
2.92

Look up protein stability index of "YPPLEGHVRQGVFSSSNHIVEKRV" and report it.
2.49

Look up protein stability index of "YPPLEGHVRQGVFSSLNHIVERRV" and report it.
2.75

Look up protein stability index of "EPPLEGHVRQGVFSSLNHIVEKRV" and report it.
3.96

Look up protein stability index of "YPPLEGHVRQGVFSSLWHIVEKRV" and report it.
2.26

Look up protein stability index of "YPPLEGHVRQGVFSSLNHIYEKRV" and report it.
2.27

Look up protein stability index of "YPPLEIHVRQGVFSSLNHIVEKRV" and report it.
1.76

Look up protein stability index of "YPPLEGHVRQGVNSSLNHIVEKRV" and report it.
3.46
